// provenance: paper PMC11445558

biological target: TRIM25 CC-PRY/SPRY (Homo sapiens, UniProt Q14258 189-630); experiment: ITC; ITC: 20 mM MES pH 6.5, 75 mM NaCl, 0.5 mM TCEP, 20 C; protein NMR: 20 mM sodium phosphate pH 6.5, 150 mM NaCl, 2 mM TCEP, 293 K; details: protein: recombinant; tags: His-Trx, cleaved (3C); chain copies: 2; hairpin with bulge
Sequence (Q14258 189-630): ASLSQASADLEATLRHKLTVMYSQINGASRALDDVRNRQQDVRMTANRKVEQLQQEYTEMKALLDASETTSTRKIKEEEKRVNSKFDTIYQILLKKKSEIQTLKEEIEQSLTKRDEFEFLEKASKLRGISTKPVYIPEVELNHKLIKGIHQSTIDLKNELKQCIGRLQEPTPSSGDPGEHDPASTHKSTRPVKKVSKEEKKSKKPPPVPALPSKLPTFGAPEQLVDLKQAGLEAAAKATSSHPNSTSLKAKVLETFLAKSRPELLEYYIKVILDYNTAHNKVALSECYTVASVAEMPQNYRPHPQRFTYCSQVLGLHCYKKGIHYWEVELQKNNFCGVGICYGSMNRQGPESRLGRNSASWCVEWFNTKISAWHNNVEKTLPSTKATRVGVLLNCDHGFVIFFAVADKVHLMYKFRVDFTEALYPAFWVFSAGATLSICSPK
Test Readout: pKd
Worth noting: pKd values are minus log10 of concentrations stated in mol/L.

Please give the measured pKd for this binder: UUAGUGGCAGACAAAGGCAUCGAGGCAGCCGCAGAAGUUGUCUGCGAAGU (structured_RNA) [RNA_50_motif1&2]
8.46
